# measured.target: Probable salicylate monooxygenase (Rhodococcus jostii (strain RHA1), UniProt Q0SFK6)
# Sequence (Q0SFK6 whole entry): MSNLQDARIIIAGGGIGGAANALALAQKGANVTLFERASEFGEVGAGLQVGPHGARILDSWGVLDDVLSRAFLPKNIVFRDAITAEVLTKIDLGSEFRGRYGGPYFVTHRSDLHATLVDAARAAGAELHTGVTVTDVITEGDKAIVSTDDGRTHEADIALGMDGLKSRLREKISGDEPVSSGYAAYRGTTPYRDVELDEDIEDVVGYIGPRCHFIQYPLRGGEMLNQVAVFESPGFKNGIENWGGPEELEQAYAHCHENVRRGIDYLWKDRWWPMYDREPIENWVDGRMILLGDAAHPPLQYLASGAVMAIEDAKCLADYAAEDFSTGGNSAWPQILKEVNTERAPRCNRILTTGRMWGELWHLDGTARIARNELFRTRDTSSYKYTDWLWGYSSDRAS
# protocol.description: Substrate Binding Assay
# run.parameters: pH 8
# Description: The interaction of 3HB6H (25 uM) with substrate analogs was studied in 50 mM Tris-SO4 (pH 8.0). Dissociation constants (Kd) of enzyme-substrate complexes were determined from flavin absorption difference spectra essentially as described elsewhere [Montersino et al., Biochim. Biophys. Acta, 1824:433-442].
experimental.readout: Kd

Give the measured Kd of O=C(O)c1cccc(O)c1 .
48 µM
